# target_entity: UniProtKB P55072
# method: biochemical
# Description: Inhibition of human full length VCP (2 to 806 residues) expressed in High5 insect cells assessed as reduction in ATPase activity by measuring ADP formation by NADH coupled assay
observable: IC50 (nM)

(a) O=C(O)[C@H]1CC[C@H](CNc2nc(-c3ccccc3)cc(-c3ccc(F)cc3)n2)CC1
(b) O=C(O)[C@H]1CC[C@H](CNc2nc(NC3CCCCC3)cc(-c3ccccc3)n2)CC1
(c) NC(=O)[C@H]1CC[C@H](CNc2nc(NCc3ccccc3)cc(-c3ccc4[nH]ncc4c3)n2)CC1
QUERY: Sort the list above on IC50 in ascending fashion. Use the labels to give the ranking in the order requested.
RESULT: c, a, b

====

# target_entity: Transitional endoplasmic reticulum ATPase (Homo sapiens, UniProt P55072)
# Sequence (P55072 whole entry): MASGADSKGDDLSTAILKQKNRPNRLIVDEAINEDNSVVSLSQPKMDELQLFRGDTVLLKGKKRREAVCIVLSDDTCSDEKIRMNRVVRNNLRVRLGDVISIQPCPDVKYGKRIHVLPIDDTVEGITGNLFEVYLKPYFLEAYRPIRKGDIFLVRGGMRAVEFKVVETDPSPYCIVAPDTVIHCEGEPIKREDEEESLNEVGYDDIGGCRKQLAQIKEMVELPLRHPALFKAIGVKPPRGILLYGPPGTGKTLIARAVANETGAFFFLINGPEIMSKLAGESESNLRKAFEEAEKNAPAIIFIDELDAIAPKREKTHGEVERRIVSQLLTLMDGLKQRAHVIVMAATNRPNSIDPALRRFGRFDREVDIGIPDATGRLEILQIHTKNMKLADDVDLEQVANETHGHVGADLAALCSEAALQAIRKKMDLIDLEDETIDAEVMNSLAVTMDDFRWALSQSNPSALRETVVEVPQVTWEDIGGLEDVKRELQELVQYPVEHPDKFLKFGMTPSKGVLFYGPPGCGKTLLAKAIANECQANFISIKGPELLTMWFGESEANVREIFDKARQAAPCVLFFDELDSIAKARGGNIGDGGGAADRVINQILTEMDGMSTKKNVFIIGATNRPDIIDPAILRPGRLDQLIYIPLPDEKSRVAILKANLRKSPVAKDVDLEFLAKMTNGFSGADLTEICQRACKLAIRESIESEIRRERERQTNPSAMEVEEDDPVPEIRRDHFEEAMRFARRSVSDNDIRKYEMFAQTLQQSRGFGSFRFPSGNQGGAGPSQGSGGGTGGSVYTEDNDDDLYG
# method: biochemical
observable: IC50 (nM)

Below are worked cases with known answers.
CNC(=O)[C@H]1CC[C@H](CNc2nc(NCc3ccccc3)cc(-c3ccccc3)n2)CC1 | 448
Cc1cccc(-c2cc(-c3ccccc3)nc(NC[C@H]3CC[C@H](C(=O)O)CC3)n2)c1 | 578
NC(=O)[C@H]1CC[C@H](CNc2nc(NCc3ccc(S(N)(=O)=O)cc3)cc(-c3ccccc3)n2)CC1 | 5170
COc1cccc(-c2cc(NCc3ccccc3)nc(NC[C@H]3CC[C@H](C(N)=O)CC3)n2)c1 | 149
NC(=O)[C@H]1CC[C@H](CNc2nc(NCc3cccc(S(N)(=O)=O)c3)cc(-c3ccccc3)n2)CC1 | 7610

(I) Cc1ccccc1-c1cc(-c2ccccc2)nc(NC[C@H]2CC[C@H](C(=O)O)CC2)n1
(II) Cc1cccc(CNc2cc(-c3ccccc3)nc(NC[C@H]3CC[C@H](C(N)=O)CC3)n2)c1
QUERY: Could you point out whether the larger IC50 belongs to I or to II ? Please respond with the label that marks your chosen entry.
RESULT: II

====

# target_entity: Transitional endoplasmic reticulum ATPase (Homo sapiens, UniProt P55072)
# method: biochemical
pIC50: −log10 of the molar value.
observable: pIC50

CS(=O)(=O)NC(=O)[C@H]1CC[C@H](CNc2nc(NCc3ccccc3)cc(-c3ccccc3)n2)CC1 | 6.88

(1) NC(=O)[C@H]1CC[C@H](CNc2nc(NCc3ccccc3)cc(-c3cccc(CO)c3)n2)CC1
(2) O=C(O)[C@H]1CC[C@H](CNc2nc(Nc3ccccc3)cc(-c3ccccc3)n2)CC1
QUERY: Could you point out whether the larger pIC50 belongs to 1 or to 2 ? Please respond with the label that marks your chosen entry.
RESULT: 2
(2: 7.44, 1: 6.87)

====

# target_entity: Transitional endoplasmic reticulum ATPase (Homo sapiens)
# method: biochemical
pIC50: −log10 of the molar value.
observable: pIC50

Below are worked cases with known answers.
O=C(O)[C@H]1CC[C@H](CNc2nc(-c3ccccc3)cc(-c3cccc(Cl)c3)n2)CC1 | 6.32
COc1ccccc1-c1cc(-c2ccccc2)nc(NC[C@H]2CC[C@H](C(=O)O)CC2)n1 | 5.52

(P) NC(=O)[C@H]1CC[C@H](CNc2nc(NCc3cccc([N+](=O)[O-])c3)cc(-c3ccccc3)n2)CC1
(Q) Cc1cccc(-c2cc(NCc3ccccc3)nc(NC[C@H]3CC[C@H](C(N)=O)CC3)n2)c1
(R) NC(=O)[C@H]1CC[C@H](CNc2nc(NCc3cccc(F)c3)cc(-c3ccccc3)n2)CC1
QUERY: hey, can you rank those molecules up there by pIC50? biggest number first please Use the labels to give the ranking in the order requested.
RESULT: Q, R, P

====

# target_entity: UniProt P55072
# method: biochemical
observable: IC50 (nM)

Below are worked cases with known answers.
NC(=O)[C@H]1CC[C@H](CNc2nc(NCc3ccccc3)cc(-c3ccccc3)n2)CC1 | 127
O=C(O)[C@H]1CC[C@H](CNc2nc(-c3ccccc3)cc(-c3ccoc3)n2)CC1 | 2190
NC(=O)[C@H]1CC[C@H](CNc2nc(NCc3ccccc3)cc(-c3ccc(Cl)cc3)n2)CC1 | 106
Cc1ccc(-c2cc(C)nc(NC[C@H]3CC[C@H](C(=O)O)CC3)n2)cc1 | 2700
Cc1cc(-c2ccccc2)nc(NC[C@H]2CC[C@H](C(=O)O)CC2)n1 | 2600

(a) O=C(O)[C@H]1CC[C@H](CNc2nc(-c3ccccc3)cc(-c3ccccc3F)n2)CC1
(b) O=C(O)[C@H]1CC[C@H](CNc2nc(-c3ccccc3)cc(-c3ccc(Cl)cc3)n2)CC1
QUERY: Look at a and b . Which one has the lower recorded IC50 number? Please respond with the label that marks your chosen entry.
RESULT: a
(a: 141 nM, b: 221 nM)

(a) NC(=O)[C@H]1CC[C@H](CNc2nc(NCc3ccccc3)cc(-c3cc4ccccc4o3)n2)CC1
(b) Cc1cccc(-c2cc(C)nc(NC[C@H]3CC[C@H](C(=O)O)CC3)n2)c1
QUERY: Could you point out whether the larger IC50 belongs to a or to b ? Please respond with the label that marks your chosen entry.
RESULT: b
(b: 11400 nM, a: 61 nM)

(A) Cc1cc(-c2ccccc2)nc(SCc2ccc(C(=O)O)cc2)n1
(B) NC(=O)[C@H]1CC[C@H](CNc2nc(NCc3cccc(Cl)c3)cc(-c3ccccc3)n2)CC1
(C) O=C(NS(=O)(=O)C(F)(F)F)[C@H]1CC[C@H](CNc2nc(NCc3ccccc3)cc(-c3ccccc3)n2)CC1
(D) O=C(O)[C@H]1CC[C@H](CNc2nccc(-c3ccccc3)n2)CC1
QUERY: hey, can you rank those molecules up there by IC50? biggest number first please Use the labels to give the ranking in the order requested.
RESULT: D, A, B, C
(D: 8700 nM, A: 4800 nM, B: 2760 nM, C: 264 nM)

(A) NC(=O)[C@H]1CC[C@H](CNc2nc(NCc3ccccc3)cc(-c3ccc(C(F)(F)F)cc3)n2)CC1
(B) NC(=O)[C@H]1CC[C@H](CNc2nc(NCc3ccccc3Cl)cc(-c3ccccc3)n2)CC1
QUERY: Look at A and B . Which one has the lower recorded IC50 number? Please respond with the label that marks your chosen entry.
RESULT: A
(A: 222 nM, B: 6940 nM)

====

# target_entity: Transitional endoplasmic reticulum ATPase (Homo sapiens, UniProt P55072)
# method: biochemical
# Type: cell-based
observable: IC50 (nM)

Below are worked cases with known answers.
O=C(O)[C@H]1CC[C@H](CNc2nc(-c3ccccc3)cc(-c3cccnc3)n2)CC1 | 1200
NC(=O)[C@H]1CC[C@H](CNc2nc(NCc3ccccc3)cc(-c3cccc(C(F)(F)F)c3)n2)CC1 | 237

(a) O=C(O)[C@H]1CC[C@H](CNc2nc(-c3ccccc3)cc(-c3cccc([N+](=O)[O-])c3)n2)CC1
(b) NC(=O)[C@H]1CC[C@H](CNc2nc(NCc3ccccc3)cc(-c3ccc(F)cc3)n2)CC1
(c) COc1ccc(CNc2cc(-c3ccccc3)nc(NC[C@H]3CC[C@H](C(N)=O)CC3)n2)cc1
(d) [N-]=[N+]=Nc1cccc(-c2cc(-c3ccccc3)nc(NC[C@H]3CC[C@H](C(=O)O)CC3)n2)c1
(e) NC(=O)[C@H]1CC[C@H](CNc2nc(NCc3ccccc3)cc(-c3cccc(O)c3)n2)CC1
QUERY: hey, can you rank those compounds up there by IC50? biggest number first please Use the labels to give the ranking in the order requested.
RESULT: c, d, b, a, e
(c: 5040 nM, d: 879 nM, b: 299 nM, a: 201 nM, e: 106 nM)

====

# target_entity: Transitional endoplasmic reticulum ATPase (Homo sapiens)
# method: biochemical
pIC50: −log10 of the molar value.
observable: pIC50

Cc1cc(-c2ccccc2)nc(NCc2cccc(C(=O)O)c2)n1 | < 4.43
CS(=O)(=O)c1ccc(CNc2cc(-c3ccccc3)nc(NC[C@H]3CC[C@H](C(N)=O)CC3)n2)cc1 | < 5.00

// next item, pIC50 requested
Noted for COc1cccc(-c2cc(C)nc(NC[C@H]3CC[C@H](C(=O)O)CC3)n2)c1 : its pIC50 reads < 4.43
